These entries and their values trace back to patent US20210395313A1.

biological target: rat PAC1 receptor (Rattus norvegicus, UniProt P32215); construct: SHSY-5Y (human neuroblastoma cell line) and RG-2 (rat glioma cell line) cells endogenously express human and rat PAC1 receptors, respectively; endogenous in cells; host or cells: RG-2 rat glioma cells; experiment: LANCE Ultra cAMP accumulation antagonist assay in RG-2 cells; assay type: cell-based;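 also: RG-2 rat glioma cells endogenously expressing PAC1, test peptide preincubated 30 min, then PAC1 agonist added at its EC80 for 15 min, cAMP accumulation read by LANCE Ultra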
Sequence (P32215 20-523): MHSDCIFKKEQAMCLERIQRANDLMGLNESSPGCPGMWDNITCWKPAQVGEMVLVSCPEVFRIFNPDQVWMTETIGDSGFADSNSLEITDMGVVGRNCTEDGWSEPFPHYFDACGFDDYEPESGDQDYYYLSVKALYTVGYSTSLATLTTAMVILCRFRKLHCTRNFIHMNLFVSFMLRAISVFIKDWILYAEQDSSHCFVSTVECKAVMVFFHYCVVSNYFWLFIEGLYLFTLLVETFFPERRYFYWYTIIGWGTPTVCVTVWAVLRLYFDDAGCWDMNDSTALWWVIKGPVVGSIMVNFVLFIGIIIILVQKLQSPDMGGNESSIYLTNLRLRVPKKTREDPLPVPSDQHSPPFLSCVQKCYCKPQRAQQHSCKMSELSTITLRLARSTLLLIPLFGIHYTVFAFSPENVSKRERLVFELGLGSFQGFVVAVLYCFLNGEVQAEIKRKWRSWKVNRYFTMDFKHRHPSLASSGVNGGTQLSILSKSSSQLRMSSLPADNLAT
pIC50: −log10 of the molar value. Bridges are numbered along the chain shown (N, C = ends). Where no end group is shown, it is not given here.
MEASURE NAME: pIC50

Some entries whose results are on file:
SUBSTANCE | TGT | ENDPOINT RESULT
CDATCQFRKAIDDCDRQAYHSNVPGSVFKACMKQKKKEWKAG-NH2 (disulfide 1-5, 14-31) [compound 144] | rat PAC1 receptor (Rattus norvegicus, UniProt P32215) | 9.00 to 11.00
GCDATCQFRKAIDDCVRQAHHSNVPGSVFKACMKQKKKEWKAGH (disulfide 2-6, 15-32) [SEQ ID NO 88] | rat PAC1 receptor (Rattus norvegicus, UniProt P32215) | 9.00 to 11.00
CDATCQFRKAIDDCWVQAWHSNVPGSVFKACMKQKKKEFKAG-NH2 (disulfide 1-5, 14-31) [compound 134] | rat PAC1 receptor (Rattus norvegicus, UniProt P32215) | 9.00 to 11.00
CDATCQFRKAIDDCSWFAIHSNVPGSVFKACMKQKKKEFKAG-NH2 (disulfide 1-5, 14-31) [compound 115] | rat PAC1 receptor (Rattus norvegicus, UniProt P32215) | 9.00 to 11.00
CDATCQFRKAIDDCDRQAHHSNVPGSVFKACMKQKKKEFKAG-NH2 (disulfide 1-5, 14-31) [compound 168] | rat PAC1 receptor (Rattus norvegicus, UniProt P32215) | 9.00 to 11.00
CDATCQFRKAIDDCYYRSWHSNVPGSVFKACMKQRKKRWLAG-NH2 (disulfide 1-5, 14-31) [compound 69] | rat PAC1 receptor (Rattus norvegicus, UniProt P32215) | 9.00 to 11.00
CDATCQFRKAIDDCYWIAMHSNVPGSVWKACMKQKKKEFKAG-NH2 (disulfide 1-5, 14-31) [compound 147] | rat PAC1 receptor (Rattus norvegicus, UniProt P32215) | 9.00 to 11.00
CDATCQFRKAIDDCYWQAIHANVPGSVWKACMKQKKKEFKAG-NH2 (disulfide 1-5, 14-31) [compound 138] | rat PAC1 receptor (Rattus norvegicus, UniProt P32215) | 9.00 to 11.00

The measured pIC50 associated with GCDATCQFRKAIDDCAKQAHHSNVPGSVFKACMKQKKKEFKAGH (disulfide 2-6, 15-32) [compound 59] reads 9.00 to 11.00

The measured pIC50 associated with CDATCQFRKAIDDCQKQAHHSNVPGSVFKACMKQKKKEFKAGQ (disulfide 1-5, 14-31) [compound 174] reads 9.00 to 11.00

The measured pIC50 associated with CDATCQFRKAIDDCAHRAWHSNVPGSVFKLCMKQKKKEWKAGH-NH2 (disulfide 1-5, 14-31) [compound 424] reads 9.00 to 11.00

The measured pIC50 associated with CDATCQFRKAIDDCVWFAWHSNVPGSVFKACMKQKKKEFKAG-NH2 (disulfide 1-5, 14-31) [compound 148] reads 9.00 to 11.00

The measured pIC50 associated with CDATCQFRKAIDDCYYYAMHSNVPGSVWKACLKQKKKEFKAG-NH2 (disulfide 1-5, 14-31) [compound 78] reads 9.00 to 11.00

The measured pIC50 associated with CDATCQFRKAIDDCVRQAHHSNVPGSVFKACMKQKKKEWKAGH (disulfide 1-5, 14-31) [SEQ ID NO 156] reads 9.00 to 11.00

The measured pIC50 associated with CDATCQFRKAIDDCAKQAHHSNVPGSVFKSCMKQKKKEFKAG-NH2 (disulfide 1-5, 14-31) [compound 31] reads > 11.00

The measured pIC50 associated with CDATCQFRKAIDDCQKQAHHSNVPGSVFKACMKQKKKEFKAGH (disulfide 1-5, 14-31) [compound 171] reads 9.00 to 11.00

The measured pIC50 associated with CDATCQFRKAIDDCMLLSWHSNVPGSVFKACMKQKKKEFKAG-NH2 (disulfide 1-5, 14-31) [compound 132] reads > 11.00

The measured pIC50 associated with CDATCQFRKAIDDCARQAHHSNVPGSVFKLCMKQKKKEWKAGH (disulfide 1-5, 14-31) [compound 23] reads > 11.00

The measured pIC50 associated with CDATCQFRKAIDDCQKQAHHSNVPGSVFKLCMKQKKKEFKAG-NH2 (disulfide 1-5, 14-31) [compound 226] reads 9.00 to 11.00

The measured pIC50 associated with CDATCQFRKAIDDCAKQAHHSNVPGSVFKACMKQKKKEFKAG-NH2 (disulfide 1-5, 14-31) [SEQ ID NO 180] reads 9.00 to 11.00

The measured pIC50 associated with CDATCQFRKAIDDCAKQAHHSNVPGSVFKACMKQKKKEFKAGH (disulfide 1-5, 14-31) [compound 57] reads 9.00 to 11.00
